Overview of recorded IC50 for various compounds
Test: Half maximal concentration for producing a tonic block in skeletal muscle fibers (block of sodium channel at resting conditions evaluated during infrequent depolarizing pulses)
Format: functional, tissue-based, Muscle tissue

| COMPOUND | IC50 / µM |
| --- | --- |
| Cc1cccc(C)c1NC(=O)[C@H]1CCCN1C | 300 |
| Cc1cccc(C)c1NC(=O)[C@H](C)N [S-TOCAINIDE] | 520 |
| Cc1cccc(C)c1N(C)C(=O)[C@@H]1CCCN1C | 286 |
| Cc1cccc(C)c1NC(=O)[C@H]1CCCN1 | 110 |

---

The following molecules are shown together with reported Activity values.
Experiment: In vitro potential anti-myotonic activity as potency in phasic block in relation to tocainide (tocainide = 1)
Format: functional

| MOLECULE | Activity |
| --- | --- |
| Cc1cccc(C)c1N(C)C(=O)[C@@H]1CCCN1 | 3 |
| Cc1cccc(C)c1NC(=O)[C@@H](C)N [(R)-TOCAINIDE] | 1 |
| Cc1cccc(C)c1NC(=O)[C@H]1CCCN1 | 21 |
| Cc1cccc(C)c1NC(=O)[C@H](C)N [S-TOCAINIDE] | 1 |
| Cc1cccc(C)c1NC(=O)[C@@H]1CCCN1C | 8 |
| Cc1cccc(C)c1NC(=O)[C@@H]1CCCN1 | 5 |
| Cc1cccc(C)c1N(C)C(=O)[C@H]1CCCN1 | 1 |
| Cc1cccc(C)c1N(C)C(=O)[C@@H]1CCCN1C | 1.1 |
| Cc1cccc(C)c1N(C)C(=O)[C@H]1CCCN1C | 0.6 |
| Cc1cccc(C)c1NC(=O)[C@H]1CCCN1C | 2.7 |

---

IC50 listing for selected compounds.
Experiment: Half maximal concentration for producing a tonic block in skeletal muscle fibers (block of sodium channel at resting conditions evaluated during infrequent depolarizing pulses)
Format: functional, tissue-based, Muscle tissue

| COMPOUND | RESULT UNIT | REL | IC50 |
| --- | --- | --- | --- |
| Cc1cccc(C)c1N(C)C(=O)[C@@H]1CCCN1 | µM | = | 104 |
| Cc1cccc(C)c1N(C)C(=O)[C@H]1CCCN1C | µM | > | 500 |
| Cc1cccc(C)c1NC(=O)[C@@H]1CCCN1C | µM | = | 106 |
| Cc1cccc(C)c1NC(=O)[C@@H]1CCCN1 | µM | = | 230 |
| Cc1cccc(C)c1N(C)C(=O)[C@H]1CCCN1 | µM | = | 340 |
| Cc1cccc(C)c1NC(=O)[C@@H](C)N [(R)-TOCAINIDE] | µM | = | 580 |
